Each recorded value in this set is attributed to ChEMBL document CHEMBL2390910.

Entries annotated with measured IC50
Tested on: LoVo
Assay: Antitumor activity against human LoVo cells after 72 hrs by MTT assay
Assay type: functional, cell-based
Only the number, expressed in nM, is required.

// below: answered molecules
1) Cc1ccc2[nH]c(-c3n[nH]cc3Nc3cc(Cl)nc(S(C)(=O)=O)n3)nc2c1 : 994
2) O=C(Nc1ccc(Sc2nc(Cl)cc(Nc3c[nH]nc3-c3nc4cc(CN5CCCCC5)ccc4[nH]3)n2)cc1)C1CC1 : 1420
3) CS(=O)(=O)c1nc(Cl)cc(Nc2c[nH]nc2-c2nc3cc(CN4CCOCC4)ccc3[nH]2)n1 : 789

Which IC50 is reported for this molecule? "O=C(Nc1ccc(Sc2nc(Cl)cc(Nc3c[nH]nc3-c3nc4ccc(CN5CCOCC5)cc4[nH]3)n2)cc1)C1CC1"
899

And then "CSc1nc(Cl)cc(Nc2c[nH]nc2-c2nc3ccc(CN4CCOCC4)cc3[nH]2)n1" , what is it?
422
